All values here come from patent US12319672B2.

- targetOfAssay: human Gal-1 (hGal-1)
- Sequence (P09382 2-135 limits assumed): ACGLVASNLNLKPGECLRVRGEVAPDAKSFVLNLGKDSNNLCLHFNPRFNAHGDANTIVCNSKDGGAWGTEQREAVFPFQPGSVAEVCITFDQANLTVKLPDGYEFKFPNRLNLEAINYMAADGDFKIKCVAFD
- assayOverview: Competitive binding assay: binding of biotinylated hGal-1 to microplate-adsorbed asialofetuin (ASF)
- conditionSummary: Activities on hGal-1; mean values of several measurements
pIC50: −log10 of the molar value.
measuredQuantity: pIC50

• CO[C@@H]1[C@@H](n2cc(-c3ccc(C)c(F)c3F)nn2)[C@@H](O)[C@@H](CO)O[C@@H]1Cc1cc(C(C)(O)c2ccccc2F)on1 (stereo partly drawn) = 5.04
• CO[C@@H]1[C@@H](n2cc(-c3cccc(F)c3)nn2)[C@@H](O)[C@@H](CO)O[C@@H]1Cc1cc(C2CCN(C(=O)OC(C)(C)C)CC2)on1 = 6.10
• CO[C@@H]1[C@@H](n2cc(-c3cc(F)c(F)c(F)c3)nn2)[C@@H](O)[C@@H](CO)O[C@@H]1Cc1cc(C2(CC#N)CC2)no1 = 5.53

I = CO[C@@H]1[C@@H](n2cc(-c3cc(F)c(F)c(F)c3)nn2)[C@@H](O)[C@@H](CO)O[C@@H]1Cc1cn(C2CCN(C(=O)OCc3ccccc3)CC2)nn1
II = CCC(C)C(=O)N1CCC(c2cc(C[C@H]3O[C@H](CO)[C@H](O)[C@H](n4cc(-c5cc(F)c(F)c(F)c5)nn4)[C@H]3OC)no2)CC1 (mixture of isomers)
Sorting by pIC50 in descending order, would I or II appear first? Please respond with the label that marks your chosen entry. I
(I: 6.47, II: 5.60)

a = COCC(C)(C)c1cc(C[C@H]2O[C@H](CO)[C@H](O)[C@H](n3cc(-c4ccc(C)c(F)c4F)nn3)[C@H]2OC)on1
b = CC(C)(C)OC(=O)NC1CCC(c2cc(C[C@H]3O[C@H](CO)[C@H](O)[C@H](n4cc(-c5cc(F)c(F)c(F)c5)nn4)[C@H]3O)no2)CC1 (stereo partly drawn) [Ex 1.80]
c = CO[C@@H]1[C@@H](n2cc(-c3ccc(C)c(F)c3F)nn2)[C@@H](O)[C@@H](CO)O[C@@H]1Cc1cc(C2(C)COC2)no1
Order the records so the highest pIC50 appears first and the lowest last. Please write the labels in the order that was asked for. c, a, b
